Source: patent US20240218022A1

Field: IC50. Provide a value for each of the compounds that follow.
- assay_target: mouse VISTA (mVISTA) (Mus musculus, UniProt Q9D659)
- Construct: expressed in transfected cells; host or cells: Human embryonic kidney 293T cells
- Sequence (Q9D659 33-308): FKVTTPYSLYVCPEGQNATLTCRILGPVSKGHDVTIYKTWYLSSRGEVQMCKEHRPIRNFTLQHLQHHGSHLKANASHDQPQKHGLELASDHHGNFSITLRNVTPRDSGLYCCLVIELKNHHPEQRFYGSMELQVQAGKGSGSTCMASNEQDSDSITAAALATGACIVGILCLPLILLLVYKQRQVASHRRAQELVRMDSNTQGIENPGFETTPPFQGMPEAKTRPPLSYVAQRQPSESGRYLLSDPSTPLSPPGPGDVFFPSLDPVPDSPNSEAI
- assay: Cell-Based Binding High-Content Assay For mVISTA (HC CBA mVISTA)
- setup_conditions: cell-based binding high-content assay, mVISTA; the 16th table; read-out: HC CBA mVISTA IC50
- From the text: Cell-Based Binding High-Content Assay For mVISTA Human embryonic kidney 293T cells (293T) expressing mouse VISTA (mVISTA) were used for the assessment of compounds competing with the binding of a biotinylated peptide. […] The plates were washed 3 times in dPBS, sealed, and read on a CellInsight NXT High Content Screening Platform IC903000 (Thermo Scientific). […]
Positions of bridges follow the written chain, without caps; N, C: chain ends. Non-standard residues stand in square brackets, D forms with d. Residues, ends and D or L forms follow the SMILES beside them. 2Nal = N[C@@H](Cc1ccc2ccccc2c1)C(=O)O; Tic = O=C(O)[C@@H]1Cc2ccccc2CN1; Cit = NC(=O)NCCC[C@H](N)C(=O)O; Ahp(2) = CCCCC[C@H](N)C(=O)O; NMeNle = CCCC[C@H](NC)C(=O)O; NHexGly = CCCCCCNCC(=O)O; Nle = CCCC[C@H](N)C(=O)O; NBuGly = CCCCNCC(=O)O
Record the value in nM, omitting the unit from your answer.

## Task # return recorded IC50 for input CCCCCCN1CC(=O)N[C@@H](Cc2ccc(O)cc2)C(=O)N[C@@H](CCCC)C(=O)N[C@@H](CC(N)=O)C(=O)N[C@@H](CCCNC(N)=O)C(=O)N(C)[C@@H](CCCC)C(=O)N[C@@H](CCCCC)C(=O)N2CCC[C@H]2C(=O)N[C@@H](C(C)C)C(=O)N[C@@H](CC(=O)O)C(=O)N[C@H](C(=O)NCC(=O)O)CSCC(=O)N[C@@H](Cc2ccc3ccccc3c2)C(=O)N[C@@H](Cc2ccc(O)cc2)C(=O)N[C@@H](CC(=O)O)C1=O [Ex 1301] ({CH2CO}-[2Nal]YD[NHexGly]Y[Nle]N[Cit][NMeNle][Ahp(2)]PVDCG-OH; thioether N-14)
## Result 5.6

## Task Assign IC50 to the following record: CCCCC[C@@H]1NC(=O)[C@H](CC(C)C)NC(=O)[C@H](CCCNC(=N)N)NC(=O)[C@H](CC(N)=O)NC(=O)[C@H](CCCC)NC(=O)[C@H](Cc2ccc(O)cc2)NC(=O)CN(CCCC)C(=O)[C@H](CC(=O)O)NC(=O)[C@H](Cc2ccc(O)cc2)NC(=O)[C@H](Cc2ccc3ccccc3c2)NC(=O)CSC[C@@H](C(=O)NCC(=O)O)NC(=O)[C@H](CC(=O)O)NC(=O)[C@H](C(C)C)NC(=O)[C@@H]2CCCN2C1=O [Ex 1270] ({CH2CO}-[2Nal]YD[NBuGly]Y[Nle]NRL[Ahp(2)]PVDCG-OH; thioether N-14)
## Result 2.4

## Task Give IC50 for the following compound: CCCCCCN1CC(=O)N[C@@H](Cc2ccc(O)cc2)C(=O)N[C@@H](CCCC)C(=O)N[C@@H](CC(N)=O)C(=O)N[C@@H](CCCNC(=N)N)C(=O)N(C)[C@@H](CCCC)C(=O)N[C@@H](CCCCC)C(=O)N2CCC[C@H]2C(=O)N[C@@H](C(C)C)C(=O)N[C@@H](CC(=O)O)C(=O)N[C@H](C(=O)NCC(=O)O)CSCC(=O)N[C@@H](Cc2ccc3ccccc3c2)C(=O)N[C@@H](Cc2ccc(O)cc2)C(=O)N[C@@H](CC(=O)O)C1=O [Ex 1308] ({CH2CO}-[2Nal]YD[NHexGly]Y[Nle]NR[NMeNle][Ahp(2)]PVDCG-OH; thioether N-14)
## Result 9.5

## Task Note IC50 for the compound shown: CCCCCCN1CC(=O)N[C@@H](Cc2ccc(O)cc2)C(=O)N[C@@H](CC(C)C)C(=O)NCC(=O)N[C@@H](CCCNC(=N)N)C(=O)N[C@@H](Cc2ccc(O)cc2)C(=O)N[C@@H](CCCCC)C(=O)N2CCC[C@H]2C(=O)N[C@@H](C(C)C)C(=O)N[C@@H](CO)C(=O)N[C@H](C(=O)NCC(=O)O)CSCC(=O)N[C@@H](Cc2ccc3ccccc3c2)C(=O)N[C@@H](Cc2ccc(O)cc2)C(=O)N[C@@H](CC(=O)O)C1=O [Ex 1292] ({CH2CO}-[2Nal]YD[NHexGly]YLGRY[Ahp(2)]PVSCG-OH; thioether N-14)
## Result 29.9

## Task Query IC50 for CCCCCCN1CC(=O)N[C@@H](Cc2ccc(O)cc2)C(=O)N[C@@H](CCCC)C(=O)N[C@@H](CC(N)=O)C(=O)N[C@@H](CCCNC(=N)N)C(=O)N2Cc3ccccc3C[C@H]2C(=O)N[C@@H](CCCCC)C(=O)N2CCC[C@H]2C(=O)N[C@@H](C(C)C)C(=O)N[C@@H](CC(=O)O)C(=O)N[C@H](C(=O)NCC(N)=O)CSCC(=O)N[C@@H](Cc2ccc3ccccc3c2)C(=O)N[C@@H](Cc2ccc(O)cc2)C(=O)N[C@@H](CC(=O)O)C1=O [Ex 1307] ({CH2CO}-[2Nal]YD[NHexGly]Y[Nle]NR[Tic][Ahp(2)]PVDCG-NH2; thioether N-14)
## Result 11.4

## Task Consider the compound CCCCCCN1CC(=O)N[C@@H](Cc2ccc(O)cc2)C(=O)N[C@@H](CCCCC)C(=O)N[C@@H](CC(=O)O)C(=O)N[C@@H](CCCNC(=N)N)C(=O)N[C@@H](CC(C)C)C(=O)N[C@@H](CCCCC)C(=O)N2CCC[C@H]2C(=O)N[C@@H](C(C)C)C(=O)N[C@@H](CC(=O)O)C(=O)N[C@H](C(=O)NCC(N)=O)CSCC(=O)N[C@@H](Cc2ccc3ccccc3c2)C(=O)N[C@@H](Cc2ccc(O)cc2)C(=O)N[C@@H](CC(=O)O)C1=O [Ex 1279] ({CH2CO}-[2Nal]YD[NHexGly]Y[Ahp(2)]DRL[Ahp(2)]PVDCG-NH2; thioether N-14) and give its recorded IC50.
## Result 26.6

## Task Quickly give me recorded IC50 for CCCCCCN1CC(=O)N[C@@H](Cc2ccc(O)cc2)C(=O)N[C@@H](CCCC)C(=O)NCC(=O)N[C@@H](CCCNC(=N)N)C(=O)N[C@@H](CC(C)C)C(=O)N[C@@H](CCCCC)C(=O)N2CCC[C@H]2C(=O)N[C@@H](C(C)C)C(=O)N[C@@H](CC(=O)O)C(=O)N[C@H](C(=O)NCC(=O)O)CSCC(=O)N[C@@H](Cc2ccc3ccccc3c2)C(=O)N[C@@H](Cc2ccc(O)cc2)C(=O)N[C@@H](CC(=O)O)C1=O [Ex 1285] ({CH2CO}-[2Nal]YD[NHexGly]Y[Nle]GRL[Ahp(2)]PVDCG-OH; thioether N-14)
## Result 8.3

## Task Quickly give me recorded IC50 for CCCCCCN1CC(=O)N[C@@H](Cc2ccc(O)cc2)C(=O)N[C@@H](CC(C)C)C(=O)NCC(=O)N[C@@H](CCCNC(=N)N)C(=O)N[C@@H](CC(N)=O)C(=O)N[C@@H](CCCCC)C(=O)N2CCC[C@H]2C(=O)N[C@@H](C(C)C)C(=O)N[C@@H](CO)C(=O)N[C@H](C(=O)NCC(=O)O)CSCC(=O)N[C@@H](Cc2ccc3ccccc3c2)C(=O)N[C@@H](Cc2ccc(O)cc2)C(=O)N[C@@H](CC(=O)O)C1=O [Ex 1293] ({CH2CO}-[2Nal]YD[NHexGly]YLGRN[Ahp(2)]PVSCG-OH; thioether N-14)
## Result 19.9
